Assay: refractive index (Na D-line) (dimensionless)
Conditions: 313.15 K; 102 kPa; Liquid; Standard Abbe refractometry
I'd appreciate it if you could supply refractive index values for the items below.
Numbers only.

Consider the reported refractive index for these compounds:
- compound: "CC(C)(C)c1ccccc1"
  refractive index: 1.48256
- compound: "C[Si]1(CCC(F)(F)F)O[Si](C)(CCC(F)(F)F)O[Si](C)(CCC(F)(F)F)O1 (stereo not given)"
  refractive index: 1.35808
- compound: "O=[N+]([O-])c1ccccc1"
  refractive index: 1.5425
- compound: "CCc1ccccc1"
  refractive index: 1.48491

The record that follows has no refractive index shown yet.
Need refractive index of `COc1ccccc1` , thanks. 1.50604
